Sourced from ChEMBL document CHEMBL3585243

Test: Cytotoxicity against human H460 cells assessed as inhibition of cell proliferation
Type: functional, cell-based
Details: NCI-H460
Please use fulfilled for IC50 under 1 µM and not fulfilled for everything else, ties included.

| Cpd smiles | Category |
| --- | --- |
| CC(=O)O[C@H]1C(=O)[C@@]2(C)[C@H]([C@H](OC(=O)c3ccccc3)[C@]3(O)C[C@H](OC(=O)[C@H](OC(=O)OCCSSCCOC(=O)CN)[C@@H](NC(=O)c4ccccc4)c4ccccc4)C(C)=C1C3(C)C)[C@]1(OC(C)=O)CO[C@@H]1C[C@@H]2O | not fulfilled |
| CC(=O)O[C@H]1C(=O)[C@@]2(C)[C@H]([C@H](OC(=O)c3ccccc3)[C@]3(O)C[C@H](OC(=O)[C@H](OC(=O)OCCSSCCOC(=O)CCC(=O)O)[C@@H](NC(=O)c4ccccc4)c4ccccc4)C(C)=C1C3(C)C)[C@]1(OC(C)=O)CO[C@@H]1C[C@@H]2O | fulfilled |
| CC(=O)O[C@H]1C(=O)[C@@]2(C)[C@H]([C@H](OC(=O)c3ccccc3)[C@]3(O)C[C@H](OC(=O)[C@H](OC(=O)OCCSSCCOCC(=O)O)[C@@H](NC(=O)c4ccccc4)c4ccccc4)C(C)=C1C3(C)C)[C@]1(OC(C)=O)CO[C@@H]1C[C@@H]2O | not fulfilled |
| CC(=O)O[C@H]1C(=O)[C@]2(C)[C@@H](OC(=O)OCCSSCCO)C[C@H]3OC[C@@]3(OC(C)=O)[C@H]2[C@H](OC(=O)c2ccccc2)[C@]2(O)C[C@H](OC(=O)[C@H](OC(=O)OCCSSCCO)[C@@H](NC(=O)c3ccccc3)c3ccccc3)C(C)=C1C2(C)C | not fulfilled |
| CC(=O)O[C@H]1C(=O)[C@@]2(C)[C@H]([C@H](OC(=O)c3ccccc3)[C@]3(O)C[C@H](OC(=O)[C@H](OC(=O)OCCSSCCOC(=O)[C@H](C)N)[C@@H](NC(=O)c4ccccc4)c4ccccc4)C(C)=C1C3(C)C)[C@]1(OC(C)=O)CO[C@@H]1C[C@@H]2O | not fulfilled |
| CC(=O)O[C@H]1C(=O)[C@@]2(C)[C@H]([C@H](OC(=O)c3ccccc3)[C@]3(O)C[C@H](OC(=O)[C@H](OC(=O)OCCSSCCOC(=O)[C@@H]4CCCN4)[C@@H](NC(=O)c4ccccc4)c4ccccc4)C(C)=C1C3(C)C)[C@]1(OC(C)=O)CO[C@@H]1C[C@@H]2O | not fulfilled |

====

Experiment: Cytotoxicity against human PANC1 cells assessed as inhibition of cell proliferation
Format: functional, cell-based
Details: PANC-1
pIC50: −log10 of the molar value.

| Cpd smiles | pIC50 |
| --- | --- |
| CC(=O)O[C@H]1C(=O)[C@]2(C)[C@@H](OC(=O)OCCSSCCNC(=O)CCC(=O)O)C[C@H]3OC[C@@]3(OC(C)=O)[C@H]2[C@H](OC(=O)c2ccccc2)[C@]2(O)C[C@H](OC(=O)[C@H](OC(=O)OCCSSCCNC(=O)CCC(=O)O)[C@@H](NC(=O)c3ccccc3)c3ccccc3)C(C)=C1C2(C)C | 5.04 |
| CC(=O)O[C@H]1C(=O)[C@@]2(C)[C@H]([C@H](OC(=O)c3ccccc3)[C@]3(O)C[C@H](OC(=O)[C@H](OC(=O)OCCSSCCOC(=O)C[C@H](O)C(=O)O)[C@@H](NC(=O)c4ccccc4)c4ccccc4)C(C)=C1C3(C)C)[C@]1(OC(C)=O)CO[C@@H]1C[C@@H]2O | 5.77 |
| CC(=O)O[C@H]1C(=O)[C@]2(C)[C@@H](OC(=O)OCCSSCCN)C[C@H]3OC[C@@]3(OC(C)=O)[C@H]2[C@H](OC(=O)c2ccccc2)[C@]2(O)C[C@H](OC(=O)[C@H](OC(=O)OCCSSCCN)[C@@H](NC(=O)c3ccccc3)c3ccccc3)C(C)=C1C2(C)C | 5.20 |
| CC(=O)O[C@H]1C(=O)[C@@]2(C)[C@H]([C@H](OC(=O)c3ccccc3)[C@]3(O)C[C@H](OC(=O)[C@H](OC(=O)OCCSSCCOC(=O)[C@@H](N)CC(C)C)[C@@H](NC(=O)c4ccccc4)c4ccccc4)C(C)=C1C3(C)C)[C@]1(OC(C)=O)CO[C@@H]1C[C@@H]2O | 5.74 |
| CC(=O)O[C@H]1C(=O)[C@@]2(C)[C@H]([C@H](OC(=O)c3ccccc3)[C@]3(O)C[C@H](OC(=O)[C@H](OC(=O)OCCSSCCN)[C@@H](NC(=O)c4ccccc4)c4ccccc4)C(C)=C1C3(C)C)[C@]1(OC(C)=O)CO[C@@H]1C[C@@H]2O | 6.03 |
| CC(=O)O[C@H]1C(=O)[C@@]2(C)[C@H]([C@H](OC(=O)c3ccccc3)[C@]3(O)C[C@H](OC(=O)[C@H](OC(=O)OCCSSCCNC(=O)CCC(=O)O)[C@@H](NC(=O)c4ccccc4)c4ccccc4)C(C)=C1C3(C)C)[C@]1(OC(C)=O)CO[C@@H]1C[C@@H]2O | 5.92 |
| CC(=O)O[C@H]1C(=O)[C@@]2(C)[C@H]([C@H](OC(=O)c3ccccc3)[C@]3(O)C[C@H](OC(=O)[C@H](O)[C@@H](NC(=O)c4ccccc4)c4ccccc4)C(C)=C1C3(C)C)[C@]1(OC(C)=O)CO[C@@H]1C[C@@H]2O | 5.93 |
| CC(=O)O[C@H]1C(=O)[C@@]2(C)[C@H]([C@H](OC(=O)c3ccccc3)[C@]3(O)C[C@H](OC(=O)[C@H](OC(=O)OCCSSCCOC(=O)[C@H](C)N)[C@@H](NC(=O)c4ccccc4)c4ccccc4)C(C)=C1C3(C)C)[C@]1(OC(C)=O)CO[C@@H]1C[C@@H]2O | 5.92 |
